Record type: Ki measurement. Applies to: Histamine H1 receptor (Homo sapiens)
ATTRIBUTE_MEASURED: Ki (µM)

>  <CHEMICAL_STRING>
CCc1cnc2c(N3CC(NC)C3)nc(N)nc2c1

>  <ENDPOINT_VALUE>
33.9

$$$$
>  <CHEMICAL_STRING>
CNC1CN(c2nc(N)nc3cc(C4CCCC4)cnc23)C1

>  <ENDPOINT_VALUE>
16.6

$$$$
>  <CHEMICAL_STRING>
CNC1CN(c2nc(N)nc3cc(C4CC4)cnc23)C1

>  <ENDPOINT_VALUE>
20.9

$$$$

* * *

# Species: Homo sapiens
# TEST_METHOD_NOTES: Selectivity ratio of Ki for human histamine H3 receptor to Ki for human histamine H4 receptor
Listed below: Ratio Ki values for each entry.
ATTRIBUTE_MEASURED: Ratio Ki

>  <CHEMICAL_STRING>
CNC1CN(c2nc(N)nc3cc(C4CCCC4)ccc23)C1

>  <ATTRIBUTE_MEASURED>
Ratio Ki

>  <ENDPOINT_VALUE>
47

$$$$
>  <CHEMICAL_STRING>
CN[C@@H]1CCN(c2nc(N)nc3cc(C4CC4)cnc23)C1

>  <ATTRIBUTE_MEASURED>
Ratio Ki

>  <ENDPOINT_VALUE>
98

$$$$
>  <CHEMICAL_STRING>
CCc1ccc2c(N3CCNCC3)nc(N)nc2c1

>  <ATTRIBUTE_MEASURED>
Ratio Ki

>  <ENDPOINT_VALUE>
15

$$$$
>  <CHEMICAL_STRING>
CN[C@@H]1CCN(c2cc(NCC3CC3)nc(N)n2)C1

>  <ATTRIBUTE_MEASURED>
Ratio Ki

>  <ENDPOINT_VALUE>
22

$$$$
>  <CHEMICAL_STRING>
Nc1nc(N2CCNCC2)c2ccc(C3CC3)cc2n1

>  <ATTRIBUTE_MEASURED>
Ratio Ki

>  <ENDPOINT_VALUE>
13

$$$$
>  <CHEMICAL_STRING>
CNC1CN(c2nc(N)nc3cc(C4CC4)cnc23)C1

>  <ATTRIBUTE_MEASURED>
Ratio Ki

>  <ENDPOINT_VALUE>
120

$$$$
>  <CHEMICAL_STRING>
CNC1CN(c2nc(N)nc3cc(C4CC4)ccc23)C1

>  <ATTRIBUTE_MEASURED>
Ratio Ki

>  <ENDPOINT_VALUE>
98

$$$$
>  <CHEMICAL_STRING>
CCc1ccc2c(N3CC[C@@H](NC)C3)nc(N)nc2c1

>  <ATTRIBUTE_MEASURED>
Ratio Ki

>  <ENDPOINT_VALUE>
56

$$$$
>  <CHEMICAL_STRING>
CCc1cnc2c(N3CC[C@@H](NC)C3)nc(N)nc2c1

>  <ATTRIBUTE_MEASURED>
Ratio Ki

>  <ENDPOINT_VALUE>
166

$$$$
>  <CHEMICAL_STRING>
CNC1CN(c2nc(N)nc3cc(C4CCCC4)cnc23)C1

>  <ATTRIBUTE_MEASURED>
Ratio Ki

>  <ENDPOINT_VALUE>
23

$$$$
>  <CHEMICAL_STRING>
CN[C@@H]1CCN(c2nc(N)nc3cc(C(C)C)cnc23)C1

>  <ATTRIBUTE_MEASURED>
Ratio Ki

>  <ENDPOINT_VALUE>
12

$$$$
>  <CHEMICAL_STRING>
Nc1nc(N2CCNCC2)c2ccc(C3CCCC3)cc2n1

>  <ATTRIBUTE_MEASURED>
Ratio Ki

>  <ENDPOINT_VALUE>
27

$$$$

// data source = ChEMBL document CHEMBL2375287
